# System: morningglory
# protocolText: Test A pre-/postemergence herbicide test
# Format: in vivo, Ipomoea spp.
# experimentalConditions: Postemergence, 125 g ai/ha; 0 to 100 scale, 0 no effect, 100 complete control
parameterMeasured: Plant response rating, Morningglory
# respond with the number and nothing more

[Q] Consider the compound O=C1NCC(c2ccc(Cl)cc2)C1C(=O)Nc1ccccc1F (racemic) and give its recorded Plant response rating, Morningglory.
[A] 0

[Q] Consider the compound O=C1NCC(c2cccc(Br)c2)C1C(=O)Nc1cccc(F)c1F (centres unmarked) and give its recorded Plant response rating, Morningglory.
[A] 0

[Q] Consider the compound O=C1NCC(c2ccc(F)c(C(F)(F)F)c2)C1C(=O)Nc1ccccc1F (racemic) and give its recorded Plant response rating, Morningglory.
[A] 20

[Q] Consider the compound O=C1NCC(c2ccc(F)c(F)c2)C1C(=O)Nc1cccc(F)c1 (racemic) and give its recorded Plant response rating, Morningglory.
[A] 0

[Q] Consider the compound O=C1NCC(c2ccc(F)c(F)c2)C1C(=O)Nc1ccccc1Br (centres unmarked) and give its recorded Plant response rating, Morningglory.
[A] 0

---

# Tested on: nutsedge, yellow
# protocolText: Test C pre-/postemergence herbicide test
# Type: in vivo, Cyperus esculentus
# experimentalConditions: Postemergence, 31 g ai/ha; scale 0 to 100 (0 no effect, 100 complete control)
# Description: […]
parameterMeasured: Plant response rating, Nutsedge, Yellow
# respond with the number and nothing more

[Q] Consider the compound CN1CC(c2cccc(C(F)(F)F)c2)C(C(=O)Nc2ccccc2F)C1=O (stereo not drawn) and give its recorded Plant response rating, Nutsedge, Yellow.
[A] 10

[Q] Consider the compound O=C1NCC(c2cccc(C(F)(F)F)c2)C1C(=O)Nc1cccc(Cl)c1F (stereo not drawn) and give its recorded Plant response rating, Nutsedge, Yellow.
[A] 0

[Q] Consider the compound O=C1NCC(c2cccc(Cl)c2)C1C(=O)Nc1cccc(F)c1F (racemic) and give its recorded Plant response rating, Nutsedge, Yellow.
[A] 0

[Q] Consider the compound O=C1NCC(c2cccc(C(F)(F)F)c2)C1C(=O)Nc1ccc(F)cc1F (racemic) and give its recorded Plant response rating, Nutsedge, Yellow.
[A] 10

[Q] Consider the compound Cc1cccc(NC(=O)C2C(=O)NCC2c2cccc(C(F)(F)F)c2)c1 (stereo not drawn) and give its recorded Plant response rating, Nutsedge, Yellow.
[A] 0

[Q] Consider the compound O=C1NCC(c2ccc(C(F)(F)F)cc2)C1C(=O)Nc1ccc(F)c(F)c1F (stereo not drawn) and give its recorded Plant response rating, Nutsedge, Yellow.
[A] 0

---

# Test system: lambsquarters
# protocolText: Test C pre-/postemergence herbicide test
# Format: in vivo, Chenopodium album
# experimentalConditions: Postemergence; 250 g ai/ha; scale 0 to 100 (0 no effect, 100 complete control)
parameterMeasured: Plant response rating, Lambsquarters
# respond with the number and nothing more

[Q] Consider the compound O=C1NCC(c2ccccc2)C1C(=O)Nc1ccccc1F (racemic) [Compound 81] and give its recorded Plant response rating, Lambsquarters.
[A] 3

[Q] Consider the compound O=C1NCC(c2cccc(OC(F)F)c2)C1C(=O)Nc1ccc(F)c(F)c1F (stereo not shown) [Compound 325] and give its recorded Plant response rating, Lambsquarters.
[A] 65

[Q] Consider the compound O=C1NCC(c2cccc(Br)c2)C1C(=O)Nc1cccc(F)c1F (stereo not shown) [Compound 309] and give its recorded Plant response rating, Lambsquarters.
[A] 70

[Q] Consider the compound O=C1NCC(c2cccc(C(F)(F)F)c2)C1C(=O)Nc1ccc(F)c(F)c1F (stereo not shown) [Compound 315] and give its recorded Plant response rating, Lambsquarters.
[A] 80

[Q] Consider the compound O=C1NCC(c2ccc(F)cc2)C1C(=O)Nc1cccc(F)c1F (racemic) [Compound 119] and give its recorded Plant response rating, Lambsquarters.
[A] 70

[Q] Consider the compound O=C1NCC(c2cccc(C(F)(F)F)c2)C1C(=O)Nc1cccc(Cl)c1F (stereo not shown) [Compound 316] and give its recorded Plant response rating, Lambsquarters.
[A] 65

[Q] Consider the compound Cc1cccc(NC(=O)C2C(=O)NCC2c2cccc(C(F)(F)F)c2)c1 (stereo not shown) [Compound 317] and give its recorded Plant response rating, Lambsquarters.
[A] 25
